Below, each of the molecules is paired with its reported z-score value.
# EXPERIMENT SUMMARY: HepG2 cell viability effects, profiling panel, calcein-AM fluorescence, 48 h, basal (AID 1164); further: test concentration not given here
# APPLIED CONDITIONS: higher = more signal

Worked cases, z-score given:
# z-score of O=C(O)[C@]1(Cc2ccccc2)N=C(c2ccc(OCCCO)cc2)O[C@@H]1c1ccccc1 = 0.493

Record CCOC(=CC(=O)OC)CC(O)c1cccc(Cl)c1 (stereo not given) , field z-score: -0.0117

The value of z-score measured for the molecule O=C(O)[C@H](Cc1ccccc1)n1cc(-c2ccccn2)nn1 turned out to be -0.129

Moving on to another molecule below.
Value of measured z-score for the entry CC(C)C(=C=CC[C@H](O)c1ccc(OCCO)cc1)C[C@H](O)c1cc(Cl)cc(Cl)c1O : -0.627

----------
# EXPERIMENT SUMMARY: binders of probe aFST on microarray, primary screen, stem cell growth factor project, biochemical, small-molecule microarray, fluorescence 635/667 (AID 1086);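 further: score merges 667 nm fluorescence with signal-to-noise of each printed compound spot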
# APPLIED CONDITIONS: higher = more signal
REPORTED ENDPOINT: composite z-score
Would you mind answering with just the numeric figure?

Known composite z-score results, listed for orientation:
For record CC(C)C(=C=CC[C@@H](O)c1ccccc1OCCO)C[C@@H](O)COCc1ccccc1 the listed composite z-score is 0.592

Entry CN(C)CCCCNC(=O)[C@H]1C[C@H]2C(=O)N3CCC[C@H]3C(=O)N2[C@H]1c1ccc(O)cc1 , composite z-score reported as 0.0253

Quick note, composite z-score for O=C1C[C@]2(c3ccc([N+](=O)[O-])cc3)C(=O)N(Cc3ccccc3)c3cc(CO)ccc3[C@H]2N1CC12CC3CC(CC(C3)C1)C2 landed at 0.0779

Here is the next item to consider.
The molecule identified as COCCOC(=O)N1C(=O)[C@@]2(c3cc(C#Cc4ccc(OC)cc4)ccc31)[C@H](C(=O)N1CCN(c3ncccn3)CC1)[C@H]1C(=O)O[C@H](c3ccccc3)[C@H](c3ccccc3)N1[C@@H]2c1ccccc1OCCO registered its composite z-score at 0.0402

----------
# TARGET ENTITY: Pro-neuregulin-1, membrane-bound isoform (Homo sapiens)
# EXPERIMENT SUMMARY: NRG1 binders on small-molecule microarrays, primary screen, psychiatric disease protein project, biochemical, small-molecule microarray, fluorescence 635/667 (AID 1075);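 further: score combines 667 nm spot fluorescence with signal to noise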
# APPLIED CONDITIONS: NRG1 binding, 635 nm fluorescence, higher = more signal
Recorded composite z-score values for a group of molecules are listed next.
Lab note: record just the number, no unit beside it.

Item: O=C1NC(=O)C2C1C=CC(C(O)c1cc(C(F)(F)F)cc(C(F)(F)F)c1)N2Nc1ccc(Cl)cc1Cl (stereo unspecified) | composite z-score: 1.45

For reference, reported composite z-score for COCCCNC(=O)[C@@]1(Sc2ccc(C)cc2)CC(=O)N(C2Cc3ccccc3C2)[C@@H]1c1ccc(CO)cc1I stands at 1.12

Just so you know, measured composite z-score for CCOC(=O)C[C@H]1[C@H](OC(=O)c2ccc(C(=O)c3ccccc3)cc2)[C@@H](NC(=O)c2ccc3ccccc3c2)c2cc(OCCCO)ccc2N1C(=O)c1ccccc1 came out at 1.01

Entry under test: C=CC[C@]12N=C(c3ccc(OCCCO)cc3)O[C@H]1c1ccccc1N(C)C2=O . Its composite z-score was 1.3

Recorded result, COCCOC(=O)N1C(=O)[C@@]2(c3cc(C#CC4(O)CCCCCC4)ccc31)[C@H](C(=O)N1CCCCCCC1)[C@H]1C(=O)O[C@H](c3ccccc3)[C@H](c3ccccc3)N1[C@@H]2c1ccc(OCCO)cc1 , composite z-score: 2.18

Further cases:
Memo: CCOC(=O)C[C@H]1[C@H](OC(=O)c2ccccc2-c2ccccc2)[C@@H](NC(=O)c2ccc3ccccc3n2)c2cc(OCCCO)ccc2N1C(=O)c1ccc2ccccc2n1 , reported composite z-score: 0.189

----------
# EXPERIMENT SUMMARY: binders of probe aFGF10 on microarray, primary screen, stem cell growth factor project, biochemical, small-molecule microarray, fluorescence 635/667 (AID 1071);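 further: score merges 667 nm spot intensity and signal to noise from triplicate slides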
# APPLIED CONDITIONS: higher = more signal
// map composite z-score onto a label; ranges LOW (below 0.2), MEDIUM (0.2 to below 0.6), HIGH (0.6 or more)

Some entries whose results are on file:
Lab note: sort C=CCN1C(=O)[C@@]2(O[C@@H](CCn3cc([C@H](O)c4ccccc4)nn3)[C@H]([Si](C)(C)c3ccc(OC)cc3)[C@H]2C)c2ccccc21 into the matching composite z-score band.
MEDIUM

# bin label for [N-]=[N+]=NCc1ccccc1C[C@@]1(C(=O)NCCN2CCOCC2)N=C(c2ccc(OCCCO)cc2)O[C@@H]1c1ccccc1N=[N+]=[N-]
HIGH

Which class does CC(=O)n1cc(C(O)C2C=CC3C(=O)N(Cc4ccccc4)C(=O)C3N2n2cnnc2)c2ccccc21 (stereo unspecified) fall in?
LOW

---
Which class is correct for the following compound? C=CCOC(=O)[C@H]1[C@@H]2C(=O)O[C@@H](c3ccccc3)[C@@H](c3ccccc3)N2[C@@H](c2ccc(OCCOC(=O)[C@H]3C[C@H]4C(=O)N[C@@H](CCCC[N+](C)(C)C)C(=O)N4[C@H]3c3cccc(OCCO)c3)cc2)[C@]12C(=O)Nc1ccc(I)cc12
HIGH

Each compound maps to one class by composite z-score. Which class for C=CCOC(=O)[C@@H]1[C@H]2C(=O)O[C@H](c3ccccc3)[C@H](c3ccccc3)N2[C@H](c2ccc(OCCOC(=O)[C@H]3C[C@H]4C(=O)N[C@@H](CCCCNC(C)=O)C(=O)N4[C@H]3c3cccc(OCCO)c3)cc2)[C@@]12C(=O)Nc1ccc(I)cc12 ?
MEDIUM

Using the reported composite z-score, which band applies to CN1C(=O)C2C=CC(C(O)Cc3ccccc3)N(N(c3ccccc3)c3ccccc3)C2C1=O (stereo unspecified) ?
HIGH

Note: place this compound into its band. Item: COc1ccc([Si](C)(C)[C@H]2[C@H](CCn3cc([C@H](O)c4ccccc4)nn3)O[C@@]3(C(=O)N(Cc4cccc(N5C(=O)c6cccc7cccc5c67)c4)c4ccccc43)[C@@H]2C)cc1
LOW

Textbook exercise: identify the category of the compound given here, O=C1C2C=CC(C(O)c3cc(C(F)(F)F)cc(C(F)(F)F)c3)N(Nc3ccc([N+](=O)[O-])cc3)C2C(=O)N1c1ccccc1 (stereo unspecified) , according to its measured value.
HIGH

Consider C[C@H]1C2=C3C(CC[C@H]4C(OCc5ccc(F)cc5C(F)(F)F)OC[C@](C)([C@@H]34)N(C(=O)OC(C)(C)C)C2)C2COC(=O)OCC21 (stereo partly specified) . To which composite z-score class does it belong?
MEDIUM

# classify by composite z-score band: C=C(CCCC)/C(=C/C[C@@H](OC(C)=O)c1ccc(CO)o1)c1cc(C(=O)OC)ccc1OC
HIGH

Please indicate the class for CC(C)C[C@@H]1NC(=O)[C@H]2C[C@@H](C(=O)NCCCCCC[N+](C)(C)C)[C@@H](c3cccc(OCCO)c3)N2C1=O based on its composite z-score.
LOW

For this compound, which bin applies? COCC(=C=CC[C@H](O)c1ccc(OCCO)cc1)C[C@H](O)COCc1ccccc1
MEDIUM

The entry to classify is CCCC[C@@H]1C[C@H]1[C@@H](NC(=O)c1cccnc1)c1ccc(-c2ccccc2)cc1 ; which class holds it?
LOW

Into which bin does this compound go? O=C1NC(=O)C2C1C=CC(C(O)c1c(F)cccc1Cl)N2Nc1ccccn1 (stereo unspecified)
MEDIUM

For the record C=C[C@@H](COC(C)=O)NS(=O)(=O)c1ccc(Br)cc1 , report the class its composite z-score corresponds to.
LOW

State the band of CC(=O)n1cc(C(O)C2C=CC3C(=O)N(c4ccccc4)C(=O)C3N2Nc2ccccc2)c2ccccc21 (stereo unspecified)
HIGH

Pick a category. Item: COC1(C)CN(Cc2ccccc2Br)[C@H](/C=C/c2ccccc2)[C@H](Cc2ccccc2)O1 (stereo partly specified)
LOW

Into which category would you place COC(=O)[C@]1(CCS(=O)(=O)c2ccccc2)N=C(c2ccc(OCCCO)cc2)O[C@@H]1c1ccccc1CN=[N+]=[N-] ?
LOW

Lab note: sort COC(=O)[C@@]1(Cc2ccc(F)cc2)[C@H]2c3cc(C(=O)N4CCCC4)n(CCc4c[nH]c5ccc(OC)cc45)c3C[C@H]2CN1C(=O)c1ccccc1 into the matching composite z-score band.
HIGH

Input COCCOC(=O)N1C(=O)[C@@]2(c3cc(C#Cc4ccc(OC)cc4)ccc31)[C@H](C(=O)N1CCN(c3ncccn3)CC1)[C@H]1C(=O)O[C@H](c3ccccc3)[C@H](c3ccccc3)N1[C@@H]2c1ccccc1OCCO ; output its category
MEDIUM

Textbook exercise: identify the category of the compound given here, COCCOC(=O)N1C(=O)[C@@]2(c3cc(C#CC4=CCCCC4)ccc31)[C@H](C(=O)N1CCN(c3ncccn3)CC1)[C@H]1C(=O)O[C@H](c3ccccc3)[C@H](c3ccccc3)N1[C@@H]2c1ccc(O)cc1 , according to its measured value.
HIGH

Record NC(=O)NCC#Cc1ccc2c(c1)[C@]1(C(=O)N2)[C@H](c2ccc(O)cc2)N2[C@H](c3ccccc3)[C@H](c3ccccc3)OC(=O)[C@H]2[C@@H]1C(=O)Nc1nc2ccccc2s1 — which class?
MEDIUM

Band of CCOC(=O)C1=CC[C@@H](c2ccc([N+](=O)[O-])cc2)N(S(=O)(=O)c2ccc(C)cc2)[C@H]1c1ccccc1 ?
HIGH
